system: blood stream form T. brucei; experiment: 96-well HTS assay against blood stream form T. brucei; type: cell-based, Trypanosoma brucei; conditions: Trypanosoma brucei; Table 2; 96-well HTS assay, blood stream form T. b. brucei; read-out: T. brucei EC50 (SD, n)
ASSAY ENDPOINT: pEC50
Remember, pEC50 is on a log scale: it is -log10 of the molar concentration.

N=C(N)c1ccc(-n2cc(C3(O)C=CC(=O)C=C3)nn2)cc1 [Compound 35] :: 4.96
Nc1nc(N)nc(NCCCNC(=O)CCc2ccc(S(=O)(=O)n3c(C4(O)C=CC(=O)C=C4)cc4ccccc43)cc2)n1 [Compound 46] :: 5.49
Nc1nc(N)nc(NCCCOC(=O)CCc2ccc(S(=O)(=O)n3c(C4(O)C=CC(=O)C=C4)cc4ccccc43)cc2)n1 [Compound 44] :: 6.46
O=C1C=CC(O)(c2cc3ccccc3n2S(=O)(=O)c2ccc(CCC(=O)O)cc2)C=C1 [Compound 42] :: 6.13
Nc1nc(N)nc(-n2cc(C3(O)C=CC(=O)C=C3)nn2)n1 [Compound 38] :: 5.21

Okay, next one:
Quick one: pEC50 for COC(=O)CCc1ccc(S(=O)(=O)n2c(C3(O)C=CC(=O)C=C3)cc3ccccc32)cc1 [Compound 19] ?
6.80

---

System: blood stream form T. brucei
Experiment: 96-well HTS assay against blood stream form T. brucei
Format: cell-based, Trypanosoma brucei
Protocol: The 96-well HTS assays against blood stream form T. brucei[38] and MRC5 cells were carried out as reported previously.[39] The manual assays performed on the AT1 double knock out T. brucei and wild type T. brucei were conducted as described by Jones et al.[39]
ASSAY ENDPOINT: activity against T. brucei in words

In the examples that follow, each entry is paired with its recorded activity against T. brucei in words.
O=C1C=CC(O)(c2nc3ccccc3s2)C(Cl)=C1 (centres unmarked) :: low nanomolar range
O=C1C=CC(O)(c2cn(-c3ccc4ncsc4c3)nn2)C=C1 :: low nanomolar range
Cc1ccc(S(=O)(=O)n2c(C3(O)C=CC(=O)C=C3)cc3ccncc32)cc1 :: low nanomolar range
CC(=O)NCCc1ccc(S(=O)(=O)n2c(C3(O)C=CC(=O)C=C3)cc3ccccc32)cc1 :: low nanomolar range

Find the recorded activity against T. brucei in words belonging to "O=C1C=CC(O)(c2cc3cnccc3n2S(=O)(=O)c2ccccc2)C=C1" and report it.
low nanomolar range

---

Below, each of the compounds is paired with its reported pEC50 value.
assay: in vitro; format: cell-based, human; settings: human
Entry type: numeric. Quantity: pEC50, the -log10 of concentration in molar units.

Nc1nc(N)nc(NCCCOC(=O)CCc2ccc(S(=O)(=O)n3c(C4(O)C=CC(=O)C=C4)cc4ccccc43)cc2)n1 :: 6.02
O=C1C=CC(O)(c2cc3ccccc3n2S(=O)(=O)c2ccc(CCC(=O)O)cc2)C=C1 :: 5.48
COC(=O)CCc1ccc(S(=O)(=O)n2c(C3(O)C=CC(=O)C=C3)cc3ccccc32)cc1 :: 6.55

In the following, a different compound is considered.
# lookup: pEC50 of "Nc1nc(N)nc(NCCCNC(=O)CCc2ccc(S(=O)(=O)n3c(C4(O)C=CC(=O)C=C4)cc4ccccc43)cc2)n1"
4.74
